Cited source: patent US20180185504A1

- assayed system: T1, human prolactin receptor (PRLR) (human, UniProt P16471 25-622)
- T1 sequence: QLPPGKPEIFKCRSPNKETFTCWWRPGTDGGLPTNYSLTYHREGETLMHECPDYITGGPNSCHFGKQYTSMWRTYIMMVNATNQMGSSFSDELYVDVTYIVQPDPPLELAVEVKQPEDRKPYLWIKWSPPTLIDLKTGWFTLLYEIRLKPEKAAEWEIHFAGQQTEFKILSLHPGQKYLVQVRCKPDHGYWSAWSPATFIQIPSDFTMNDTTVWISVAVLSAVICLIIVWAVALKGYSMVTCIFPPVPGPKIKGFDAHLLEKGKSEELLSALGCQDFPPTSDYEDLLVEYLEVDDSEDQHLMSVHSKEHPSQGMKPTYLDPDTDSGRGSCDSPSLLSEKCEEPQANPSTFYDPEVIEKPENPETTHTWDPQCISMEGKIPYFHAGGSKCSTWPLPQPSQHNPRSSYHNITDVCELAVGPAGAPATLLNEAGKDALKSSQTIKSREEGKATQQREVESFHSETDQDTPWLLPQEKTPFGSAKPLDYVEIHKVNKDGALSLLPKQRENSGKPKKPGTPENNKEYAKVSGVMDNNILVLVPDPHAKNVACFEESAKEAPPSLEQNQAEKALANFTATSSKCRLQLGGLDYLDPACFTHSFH
- assay: cell-based or functional assay
Catalogue of % Kill, MCF7 cells values

Below, each entry is followed by its recorded % Kill, MCF7 cells result.
H1H6800P-DM1 (antibody, human IgG1, V domains shown, DM1 conjugated through SMCC linker; attachment residues not stated) VH: EVQLVESGGGLVQPGRSLRLSCAASGFTFDGYAMHWVRQGPGKGLEWVSGISWYSDTLGYADSVKGRFTISRDNAKNSLYLQMNSLRTEDTAFYYCAKISSSGWAFDYWGQGTLVTVSS VL: EIVLTQSPGTLSLSPGERATLSCRASHSVSSAYLAWYQQKPGQTPRLLIYGTSSRATGIPDRFSGSGSGTDFTLTISRLEPEDFAVYYCQQYGSSPLFTFGPGTKVDIK : 65%
H1H6959N2-DM1 (antibody, human IgG1, V domains shown, DM1 conjugated through SMCC linker; attachment residues not stated) VH: EVQLVESGGGLVQPGRSLRLSCAASGFTFDDYAMHWVRQAPGKGLEWVSGISWHSGIIGYADSVKGRFTISRDNAKNSLYLQMNSLRTEDAALYYCAKIGSYFYFDSWGQGTLVTVSS VL: EIVLTQSPGTLSLSPGERATLSCRASQSVSSNYLAWYQQKPGQAPRLLIYGASSRATGIPDRFSGSGSGTDFTLTISRLEPEDFAVYYCQQFGSSGYTFGQGTNLEIK : 82%

Let us examine a further case.
Value of measured % Kill, MCF7 cells for the entry H1H6958N2-DM1 (antibody, human IgG1, V domains shown, DM1 conjugated through SMCC linker; attachment residues not stated) VH: QVQLVESGGGVVQPGRSLRLSCGASGFTFRNYGMQWVRQGPGKGLEWVTLISFDGNDKYYADSVKGRFTISRDNSKNTLFLQMNSLRTEDTAVYYCARGGDFDYWGQGTLVTVSS VL: DIQMTQSPSSLSASVGDRVTITCRASQDIRKDLGWYQQKPGKAPKRLIYAASSLHSGVPSRFSGSGSGTEFTLTISSLQPEDFATYYCLQHNSYPMYTFGQGTKLEIK : 77%
